system: UniProtKB P47747
Sequence (P47747 whole entry): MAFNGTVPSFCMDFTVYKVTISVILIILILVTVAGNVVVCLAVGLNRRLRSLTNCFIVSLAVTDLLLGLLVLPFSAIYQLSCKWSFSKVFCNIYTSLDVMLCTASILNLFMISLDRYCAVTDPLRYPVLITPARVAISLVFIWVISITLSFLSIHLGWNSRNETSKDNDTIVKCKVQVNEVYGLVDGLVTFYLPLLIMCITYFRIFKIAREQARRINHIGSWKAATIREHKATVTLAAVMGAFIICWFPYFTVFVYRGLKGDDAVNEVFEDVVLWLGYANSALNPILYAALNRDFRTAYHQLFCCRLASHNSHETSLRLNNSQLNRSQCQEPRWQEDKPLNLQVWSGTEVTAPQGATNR
assay summary: In vitro inhibitory activity against histamine H2-receptor in isolated Guinea pig right atria.
measurement context: read-out: pA2 (converted)
Output rule met for Kb not less than 0.3 µM; output rule not met otherwise.

O=C(NCCCOc1cccc(CN2CCCCC2)c1)NC1CC1; rule not met
NC(N)=Nc1nc(CSCC/C(N)=N/S(N)(=O)=O)cs1; rule not met
CCCCNC(=O)NCCCOc1cccc(CN2CCCCC2)c1; rule not met
COc1ccccc1NC(=O)NCCCOc1cccc(CN2CCCCC2)c1; rule met
O=C(NCCCOc1cccc(CN2CCCCC2)c1)Nc1cccc(C(F)(F)F)c1; rule met
O=C(NCCCOc1cccc(CN2CCCCC2)c1)Nc1ccc(C(F)(F)F)cc1; rule met
CC(C)NC(=O)NCCCOc1cccc(CN2CCCCC2)c1; rule not met
O=C(NCCCOc1cccc(CN2CCCCC2)c1)Nc1ccc(Cl)cc1; rule met
COc1cccc(NC(=O)NCCCOc2cccc(CN3CCCCC3)c2)c1; rule not met
CCC(C)NC(=O)NCCCOc1cccc(CN2CCCCC2)c1 (stereo not drawn); rule not met
COc1ccc(OC)c(NC(=O)NCCCOc2cccc(CN3CCCCC3)c2)c1; rule not met
CC(C)(C)NC(=O)NCCCOc1cccc(CN2CCCCC2)c1; rule met
O=C(NCCCOc1cccc(CN2CCCCC2)c1)NC1CCCCC1; rule not met
COc1ccc(N/C(S)=N/CCCOc2cccc(CN3CCCCC3)c2)cc1; rule met
Cc1ccc(NC(=O)NCCCOc2cccc(CN3CCCCC3)c2)cc1; rule met
CC(C)CNC(=O)NCCCOc1cccc(CN2CCCCC2)c1; rule not met
O=C(NCCCOc1cccc(CN2CCCCC2)c1)Nc1cccc([N+](=O)[O-])c1; rule not met
O=C(NCCCOc1cccc(CN2CCCCC2)c1)Nc1ccccc1; rule not met
CCNC(=O)NCCCOc1cccc(CN2CCCCC2)c1; rule not met
CCOc1ccc(NC(=O)NCCCOc2cccc(CN3CCCCC3)c2)cc1; rule met
CNC(=O)NCCCOc1cccc(CN2CCCCC2)c1; rule not met
O=C(NCCCOc1cccc(CN2CCCCC2)c1)Nc1ccc2c(c1)OCO2; rule not met
O=C(NCCCOc1cccc(CN2CCCCC2)c1)NCc1ccccc1; rule met
O=C(NCCF)NCCCOc1cccc(CN2CCCCC2)c1; rule not met
CCCNC(=O)NCCCOc1cccc(CN2CCCCC2)c1; rule not met
O=C(NCCCOc1cccc(CN2CCCCC2)c1)Nc1cccc(Cl)c1; rule met
COc1ccc(NC(=O)NCCCOc2cccc(CN3CCCCC3)c2)cc1; rule met
COc1ccc(NC(=O)NCCCOc2cccc(CN3CCCCC3)c2)c(OC)c1; rule met
